MEASUREMENT_TYPE: melting point

CHEMICAL_STRUCTURE | MEASUREMENT_TYPE | RECORDED_VALUE
COc1nc2c(-c3ccc[nH]c3=O)cc(C(C)(C)C)cc2cc1-c1ccc(NS(C)(=O)=O)cc1 | melting point | 274 to 276 °C

Problem: What value of measured melting point is listed for `CC(C)(C)c1cc(-c2cc(F)c[nH]c2=O)c2ncc(N3CCC(NS(C)(=O)=O)CC3)nc2c1` ?
Result: 224 to 226 °C

Problem: And for `COc1c(C(C)(C)C)cc(-c2ccc[nH]c2=O)c2ncc(N3CC[C@H](CNS(C)(=O)=O)C3)cc12` ?
Result: 275 to 280 °C

Problem: Also `CC(C)(C)c1cc(-c2cc(F)c[nH]c2=O)c2ncc(N3CC[C@H](CNS(C)(=O)=O)C3)nc2c1` , if possible.
Result: 170 to 175 °C

Problem: What would you report for `CC(C)(C)c1cc(-c2cc(F)c[nH]c2=O)c2ncc(N3CCC(NS(C)(=O)=O)CC3)cc2c1` ?
Result: 186 to 188 °C

Problem: Queued: `CC(C)(C)c1cc(-c2cc(F)c[nH]c2=O)c2ncc(-c3ccc(NS(C)(=O)=O)cc3)nc2c1`
Result: > 300 °C

Problem: Now the compound `CC(C)(C)c1cc(-c2ccc[nH]c2=O)c2ncc(-c3ccc(NS(C)(=O)=O)cc3Cl)nc2c1`
Result: 275 to 278 °C

// provenance: patent US8487103B2
